# Protocol details: Ex vivo permeation, Franz cells
# Assay type: in vitro ADME, porcine
# Applied conditions: CS extract
Marks after values point to notes of the source that are not given here.
Reported metric: Quantification of permeated compounds

[[record]]
compound = "O=C(O)c1ccc(O)c(O)c1"
readout_value = "0.97 ± 0.03^b mg/ml"

[[record]]
compound = "N[C@@H](Cc1c[nH]c2ccccc12)C(=O)O"
readout_value = "4.18 ± 0.26^a mg/ml"

[[record]]
compound = "O=C(O)[C@]1(O)C[C@@H](O)[C@@H](O)[C@H](O)C1"
readout_value = "1.02 ± 0.02^b mg/ml"

[[record]]
compound = "O=C(CCc1ccc(O)cc1)c1c(O)cc(O)cc1O[C@@H]1O[C@H](CO)[C@@H](O)[C@H](O)[C@H]1O"
readout_value = "1.93± 0.06^a mg/ml"

[[record]]
compound = "O=c1oc2c(O)c(O)cc3c(=O)oc4c(O)c(O)cc1c4c23"
readout_value = "7.15 ± 2.50^b mg/ml"

[[record]]
compound = "O=C(O)CCC(=O)O"
readout_value = "1.26 ± 0.01^b mg/ml"

[[record]]
compound = "COc1cc(CC(=O)O)ccc1O"
readout_value = "2.03 ± 0.03^a mg/ml"

[[record]]
compound = "O=C(O)CCCCCCCCCC(=O)O"
readout_value = "23.93 ± 1.12^a mg/ml"


Form: compound = O=C(O)CCCCCC(=O)O ; Quantification of permeated compounds = 26.17 ± 2.25^a mg/ml

Sample O=C(O)CCCCC(=O)O ; Quantification of permeated compounds observed: 93.48 ± 2.39^b mg/ml

In plain terms, N[C@@H](Cc1ccccc1)C(=O)O has a documented Quantification of permeated compounds of 5.52 ± 0.24^b mg/ml

Data point: O=C(O)C[C@H](C(=O)O)[C@@H](O)C(=O)O ; Quantification of permeated compounds = 2.20 ± 0.05^a mg/ml

Consider O=C(O)c1cccc(O)c1 [3-Hydroxybenzoic acid] . Its measured Quantification of permeated compounds is 1.18 ± 0.1^b mg/ml

----------
# Test system: TR146 cells
# Protocol details: In vitro permeation, buccal model
# Format: in vitro ADME, human
# Applied conditions: from CS-loaded OFs, 240 min
Marks after values point to notes of the source that are not given here.
Known Permeation (%) of a selection of compounds

Answered examples (4):
[[record]]
compound = "O=C(O)c1ccc(O)c(O)c1 [Protocatechuic acid]"
reported_metric = "Permeation (%)"
readout_value = "75.80 ± 0.91^a %"

[[record]]
compound = "O=C(O)C[C@H](C(=O)O)[C@@H](O)C(=O)O [Isocitric acid]"
reported_metric = "Permeation (%)"
readout_value = "3.38 ± 0.06^b %"

[[record]]
compound = "COc1cc(CC(=O)O)ccc1O [Homovanillic acid]"
reported_metric = "Permeation (%)"
readout_value = "110.05 ± 3.61^a %"

[[record]]
compound = "O=C(O)CCC(=O)O [Succinic acid]"
reported_metric = "Permeation (%)"
readout_value = "100.86 ± 1.75^d %"


Kindly review the next compound as well.
Entry COc1cc(-c2oc3cc(O)cc(O)c3c(=O)c2O)ccc1O [Isorhamnetin] ; Permeation (%) = 100.20 ± 3.56^a %

----------
# Tested on: TR146 cells
# Protocol details: In vitro permeation, buccal model
# Type: in vitro ADME, human
# Applied conditions: CS extract
Marks after values point to notes of the source that are not given here.
Reported metric: Quantification of permeated compounds

Worked examples, 4 compounds total:
[[record]]
compound = "O=C(O)C[C@H](C(=O)O)[C@@H](O)C(=O)O [Isocitric acid]"
readout_value = "222.23 ± 6.57^a mg/ml"

[[record]]
compound = "O=C(O)CCC(=O)O [Succinic acid]"
readout_value = "1.60 ± 0.03^a mg/ml"

[[record]]
compound = "O=C(O)c1ccc(O)c(O)c1 [Protocatechuic acid]"
readout_value = "0.53 ± 0.03^a mg/ml"

[[record]]
compound = "Oc1cc(O)c2c(c1)O[C@H](c1ccc(O)c(O)c1)[C@H](O)C2 [Epicatechin]"
readout_value = "0.41 ± 0.03^a mg/ml"


What the record says about COc1cc(CC(=O)O)ccc1O [Homovanillic acid] : Quantification of permeated compounds is 0.58 ± 0.03^a mg/ml
